System: MCF7 breast
Assay: NCI tumour cell line growth inhibition, 48 h
// not satisfied strictly below 9 µM in TGI; satisfied otherwise

Quick check, TGI >= 9 µM? "CCOC(=O)/C=C(/C(=O)OCC)n1cc(C)c(=O)n(Cc2cn(COCCOC(C)=O)nn2)c1=O" satisfied

Quick check, TGI >= 9 µM? CC(CO)C1C[C@H](O)[C@@]2(C)CC(=O)C=C(CO)[C@@H]2C1 (some centres undefined) satisfied

Quick check, TGI >= 9 µM? "CC(=O)OC(OC(C)=O)n1cc(C=O)c2ccccc21" satisfied

Quick check, TGI >= 9 µM? COc1cccc2c1C(=O)c1c(O)c3c(c(O)c1C2=O)C[C@@](O)(C(=O)CO)C[C@@H]3OC1C[C@H](N)[C@H](O)[C@H](C)O1 (some centres undefined) not satisfied

Quick check, TGI >= 9 µM? "Cc1[nH]c2ccccc2c1C=Nc1ccc(N=Cc2c(C)[nH]c3ccccc23)cc1" satisfied

Quick check, TGI >= 9 µM? "CC(C)NC(=O)OCc1c(COC(=O)NC(C)C)c(-c2ccc(Cl)cc2)n2c1CCC2" satisfied

Quick check, TGI >= 9 µM? COc1ccc2nc3cc(Cl)ccc3c(NCCCNCCC(C)O)c2c1 (centres undefined) not satisfied

Quick check, TGI >= 9 µM? COC(=O)/C=C1\CCC(C)(C(=O)NS(=O)(=O)c2ccc(C)cc2)C1(C)C (centres undefined) satisfied

---

Could you please report measured GI50 for the items listed next?
Test system: BT-549 breast
Assay: NCI tumour cell line growth inhibition, 48 h

Looking up "CC(C)NC(=O)OCc1c(COC(=O)NC(C)C)c(-c2ccc(Cl)cc2)n2c1CCC2" , I see its GI50 listed as 2400 nM

Looking up "COc1ccccc1C#Cc1ccccc1C#CCCCCCC#Cc1ccccc1C#Cc1ccccc1OC" , I see its GI50 listed as > 100000 nM

Looking up "Cc1c2c[n+](C(C)C)ccc2c(C)c2c1[nH]c1ccccc12" , I see its GI50 listed as 1720 nM

Looking up "COc1cc(/C=C2\CN(C)C/C(=C\c3cc(CN4CCCCC4)c(O)c(OC)c3)C2=O)cc(CN2CCCCC2)c1O" , I see its GI50 listed as 4610 nM

Looking up "CCN1c2ccccc2C(Cl)(c2ccc(N(C)C)cc2)c2ccccc21" , I see its GI50 listed as 12000 nM

Looking up COc1ccc(Cl)cc1NC(=O)C(Br)C(Br)C(=O)O (stereo unspecified) , I see its GI50 listed as 3230 nM

Looking up "COc1ccccc1/C=N\N=C(N/N=C/c1ccccc1OC)N/N=C/c1ccccc1OC" , I see its GI50 listed as 2880 nM

Looking up "c1cn2cc(-c3ccc4cn[nH]c4c3)nc(Nc3ccc(N4CCOCC4)cc3)c2n1" , I see its GI50 listed as 14500 nM

Looking up COc1ccc2nc3cc(Cl)ccc3c(NCCCNCCC(C)O)c2c1 (stereo unspecified) , I see its GI50 listed as 1730 nM

Looking up "COc1cc(-c2nc3sc4c(c3c(=O)[nH]2)CCCCCC4)cc(OC)c1OC" , I see its GI50 listed as 1260 nM

Looking up "O=C(O)c1cc2cc(OCc3ccccc3)c(OCc3ccccc3)cc2[nH]1" , I see its GI50 listed as 18500 nM

Looking up "O=C(N/N=C/c1ccc([N+](=O)[O-])cc1)c1ccc2nc(-c3ccc(Cl)cc3)[nH]c2c1" , I see its GI50 listed as 2840 nM

Looking up "C=C1C(=O)O[C@H]2[C@H]1CC/C(COC(=O)NCCc1c[nH]c3ccc(OC)cc13)=C\CC[C@@]1(C)O[C@@H]21" , I see its GI50 listed as 1400 nM

Looking up "O=C(Cc1cccc(OC(F)(F)F)c1)Nc1ccc(CCCCc2nnc(NC(=O)Cc3ccccn3)s2)nn1" , I see its GI50 listed as 27900 nM

Looking up "COC(=O)[C@]12CC[C@@H](C)[C@H](C)[C@@H]1C1=CC[C@@H]3[C@@]4(C)C=C(O)C(=O)[C@@]5(C)COC(=C54)C[C@@]3(C)[C@]1(C)CC2" , I see its GI50 listed as 7960 nM

Looking up "O=C(Nc1ccc(Cl)cc1)c1cc(-c2ccc(Cl)cc2)c2sc(=O)[nH]c2n1" , I see its GI50 listed as 2080 nM

---

System: MCF7 breast
Assay: NCI tumour cell line growth inhibition, 48 h; in the data active means GI50 below about 0.43 µM; inactive means the rest
# valid calls are 1.0 (active), 0.0 (inactive); nothing else

Please state the recorded outcome for this molecule: CO[C@@H]1/C=C(C)/C=C/[C@@H](C)/C=C(\C)C(=O)OC(/C(C)=C/C=C(\C)CNC(=O)[C@H](CO)NC=O)[C@@H](C)/C=C/C=C/[C@H](OC)CC/C=C(C)/C=C/C1 (some centres undefined) 1.0

Please state the recorded outcome for this molecule: "CCCCCCCCCCCCSC(=N)N" 0.0

Please state the recorded outcome for this molecule: "O=C(N/N=C/c1ccc([N+](=O)[O-])cc1)c1ccc2nc(-c3ccc(Cl)cc3)[nH]c2c1" 0.0

Please state the recorded outcome for this molecule: "CCOC(=O)/C=C/C(C(=O)/C=C/c1ccc(O)c(OC)c1)=C(O)\C=C\c1ccc(O)c(OC)c1" 0.0

Please state the recorded outcome for this molecule: "Cn1cc(-c2cnc3ccc4ccc(CS(=O)(=O)NCc5ccccn5)cc4c(=O)c3c2)cn1" 0.0

Please state the recorded outcome for this molecule: Cc1ccc2c(O)c(O)cc(NC(C)CCCN)c2n1 (centres undefined) 0.0

Please state the recorded outcome for this molecule: "O=[Se](=O)c1ccccc1.O=[Se](=O)c1ccccc1.[Cu]" 0.0

Please state the recorded outcome for this molecule: "COC(=O)[C@]12CC[C@@H](C)[C@H](C)[C@@H]1C1=CC[C@@H]3[C@@]4(C)C=C(O)C(=O)[C@@]5(C)COC(=C54)C[C@@]3(C)[C@]1(C)CC2" 0.0

Please state the recorded outcome for this molecule: "COc1ccc(-n2c3c(c4c(CN5CCOCC5)c(O)ccc42)CCc2ccccc2C3=O)cc1" 0.0

---

Tested on: DU-145 prostate
Assay: NCI tumour cell line growth inhibition, 48 h
observation type: TGI

Looking up C/C=C/CC(C)C(O)C1C(=O)NC(CC)C(=O)N(C)CC(=O)N(C)C(CC(C)C)C(=O)NC(C(C)C)C(=O)N(C)C(CC(C)C)C(=O)NC(C)C(=O)NC(C)C(=O)N(C)C(CC(C)C)C(=O)N(C)C(CC(C)C)C(=O)N(C)C(C(C)C)C(=O)N1C (centres undefined) , I see its TGI listed as > 32.5 µM

Looking up "COC(=O)n1c(=O)n(-c2ccccc2)c(=O)n1C(=O)OC" , I see its TGI listed as > 100 µM

Looking up "Cc1ccc(SC2=CC(=O)c3nc4ccccc4c4ccnc2c34)cc1" , I see its TGI listed as > 67.4 µM

Looking up "O=[N+]([O-])c1ccc(N=Nc2c(O)c(S(=O)(=O)O)cc3cc(S(=O)(=O)O)ccc23)cc1" , I see its TGI listed as > 100 µM

Looking up "Oc1[nH]c2ccccc2c1N=Nc1nc(-c2ccc(Cl)c(Cl)c2)cs1" , I see its TGI listed as > 100 µM

Looking up "O=C(O)c1cc(N=Cc2ccccc2O)cc(C(=O)O)c1" , I see its TGI listed as > 100 µM

Looking up "N#Cc1c(N2CCCC2)ncn(Cc2ccccc2)c1=O" , I see its TGI listed as > 100 µM

Looking up "O=C(Nc1ccc(Cl)cc1)c1cc(-c2ccc(Cl)cc2)c2sc(=O)[nH]c2n1" , I see its TGI listed as 26.5 µM

Looking up COc1ccc2nc3cc(Cl)ccc3c(NCCCNCCC(C)O)c2c1 (centres undefined) , I see its TGI listed as 1.24 µM

---

Test system: BT-549 breast
Assay: NCI tumour cell line growth inhibition, 48 h
observation type: TGI (µM)
Please respond with the number in µM and leave the unit unwritten.

Looking up "CCOC(=O)/C=C(/C(=O)OCC)n1cc(C)c(=O)n(Cc2cn(COCCOC(C)=O)nn2)c1=O" , I see its TGI listed as 37.9

Looking up COc1cc(CC2c3cc(OC)c(OC)cc3CCN2C)c(Oc2cc3c(cc2OC)-c2c(O)c(OC)cc4c2C(C3)N(C)CC4)cc1OC (stereo not given) , I see its TGI listed as 32.4

Looking up "C#CC(F)(F)[C@]1(O)CC[C@H]2[C@@H]3CCC4=CC(=O)CCC4=C3[C@@H](c3ccc(C(C)=O)cc3)C[C@@]21C" , I see its TGI listed as 55.2

Looking up "C=CC(=O)N[C@H]1CCOC[C@H]1Nc1ncc2cc(-c3c(Cl)c(OC)cc(OC)c3Cl)ccc2n1" , I see its TGI listed as 15.8

---

Tested on: NCI/ADR-RES ovarian
Test: NCI tumour cell line growth inhibition, 48 h; in the data active = GI50 below about 0.43 µM; inactive = the rest
# valid calls are active, inactive; nothing else

Please state the recorded outcome for this compound: "O=C(NC1CCN(Cc2ccccc2)CC1)c1cc2nc(-c3ccc(Cl)s3)cc(C(F)(F)F)n2n1" inactive

Please state the recorded outcome for this compound: "CCCCCCCCCCCCSC(=N)N" inactive

Please state the recorded outcome for this compound: S=C1Nc2ccc(Cl)cc2C2(c3ccccc3)N3CCN=C3NN12 (stereo unspecified) inactive

Please state the recorded outcome for this compound: C/C=C/CC(C)C(O)C1C(=O)NC(CC)C(=O)N(C)CC(=O)N(C)C(CC(C)C)C(=O)NC(C(C)C)C(=O)N(C)C(CC(C)C)C(=O)NC(C)C(=O)NC(C)C(=O)N(C)C(CC(C)C)C(=O)N(C)C(CC(C)C)C(=O)N(C)C(C(C)C)C(=O)N1C (stereo unspecified) inactive

Please state the recorded outcome for this compound: "Cc1cc(C)c(O)c(CN(C)Cc2cc(Cl)cc(Cl)c2O)c1" inactive

Please state the recorded outcome for this compound: "COc1ccc(C(=O)c2cc3c(OC)c(OC)c(OC)cc3[nH]2)cc1" inactive

Please state the recorded outcome for this compound: COc1ccc2nc3cc(Cl)ccc3c(NCCCNCCC(C)O)c2c1 (stereo unspecified) inactive

Please state the recorded outcome for this compound: "O=C(O)c1cc2cc(OCc3ccccc3)c(OCc3ccccc3)cc2[nH]1" inactive

Please state the recorded outcome for this compound: "Cc1c2c[n+](C(C)C)ccc2c(C)c2c1[nH]c1ccccc12" inactive

Please state the recorded outcome for this compound: "O=C(Nc1ccccc1O)c1ccc(Oc2cccc(C(=O)Nc3ccccc3O)c2)cc1" inactive

Please state the recorded outcome for this compound: CO[C@@H]1/C=C(C)/C=C/[C@@H](C)/C=C(\C)C(=O)OC(/C(C)=C/C=C(\C)CNC(=O)[C@H](CO)NC=O)[C@@H](C)/C=C/C=C/[C@H](OC)CC/C=C(C)/C=C/C1 (stereo partly specified) active

Please state the recorded outcome for this compound: "C=C1C(=O)O[C@H]2[C@H]1CC/C(COC(=O)CSCC(=O)OC/C1=C/CC[C@@]3(C)O[C@H]3[C@H]3OC(=O)C(=C)[C@@H]3CC1)=C\CC[C@@]1(C)O[C@@H]21" inactive

Please state the recorded outcome for this compound: "NC(=O)C#CC(N)=O" inactive

Please state the recorded outcome for this compound: COc1ccc(Cl)cc1NC(=O)C(Br)C(Br)C(=O)O (stereo unspecified) inactive

Please state the recorded outcome for this compound: "Cc1ccc(SC2=CC(=O)c3nc4ccccc4c4ccnc2c34)cc1" inactive

Please state the recorded outcome for this compound: "Cn1cc(-c2cnc3ccc4ccc(CS(=O)(=O)NCc5ccccn5)cc4c(=O)c3c2)cn1" inactive

Please state the recorded outcome for this compound: "COC(=O)[C@]12CC[C@@H](C)[C@H](C)[C@@H]1C1=CC[C@@H]3[C@@]4(C)C=C(O)C(=O)[C@@]5(C)COC(=C54)C[C@@]3(C)[C@]1(C)CC2" inactive

Please state the recorded outcome for this compound: "C=CC(=O)N[C@H]1CCOC[C@H]1Nc1ncc2cc(-c3c(Cl)c(OC)cc(OC)c3Cl)ccc2n1" inactive

Please state the recorded outcome for this compound: "Cc1cc(Cc2cc(C)cc(C(C)(C)C)c2O)c(O)c(C(C)(C)C)c1" inactive

Please state the recorded outcome for this compound: C=C(c1ccc(C(=O)N(C)c2ccccc2N)cc1)C(C)N1C(=O)[C@H]2CCCN2C(=O)c2ccccc21 (stereo partly specified) inactive

Please state the recorded outcome for this compound: "O=c1[nH]cnc2[nH]ncc12" inactive

The measured values listed here are drawn from PubChem BioAssay (NCI).
